- study-target: Microtubule-associated protein tau (Homo sapiens)
- protocol-notes: qHTS for Inhibitors of Tau Fibril Formation, Thioflavin T Binding; further: nearly all actives have a fitted effect of over 55% in size
- condition-description: recombinant tau K18 P301L, heparin-induced fibrillization, ThT fluorescence; series mostly up to 57.4 µM
In all, about 270,000 compounds went through this assay and about 5,800 (2.1%) were called active. About 16% were inconclusive and are not listed. The call rests on the fitted dose curve; in most records, active means well fitted inhibition curve with a large enough effect; inconclusive means small, poorly fitted or top-dose-only effect; inactive means flat fitted curve, though single readings scatter. This is one part of a sample in which actives are shown more often than they occur.
Your response should consist of one outcome taken from active, inactive

CN1[C@@H]2CC[C@H]1CC(OC(=O)c1cc(Cl)cc(Cl)c1)C2 (stereo not given in full): inactive
CCOCCc1c(O)[nH]c(=S)[nH]c1=O: inactive
O=C(OCC1O[C@@H](OC(=O)c2cc(O)c(O)c(O)c2)[C@@H](OC(=O)c2cc(O)c(O)c(O)c2)[C@@H](OC(=O)c2cc(O)c(O)c(O)c2)[C@@H]1OC(=O)c1cc(O)c(O)c(O)c1)c1cc(O)c(O)c(O)c1 (stereo not given in full): active

[in] Hi team, can someone confirm the assay call for "COc1ccccc1N=C1SCCCN1C" ?
[out] inactive

[in] Hi team, can someone confirm the assay call for "O=C(c1cc2nc(-c3ccccc3)cc(-c3ccccc3)n2n1)N1CCC2(CC1)OCCO2" ?
[out] inactive

[in] Hi team, can someone confirm the assay call for "COc1ccccc1-c1[se]c2ccccc2c1I" ?
[out] inactive

[in] Hi team, can someone confirm the assay call for "CN(C)c1nc(N(C)C)nc(N(C#N)CCCl)n1" ?
[out] inactive

[in] Hi team, can someone confirm the assay call for "N[C@H](C(=O)O)c1cc(=O)[nH]o1" ?
[out] inactive

[in] Hi team, can someone confirm the assay call for "CC[N+](C)(CC)CCC[n+]1c(-c2ccccc2)c2cc(N)ccc2c2ccc(N)cc21" ?
[out] active

[in] Hi team, can someone confirm the assay call for O=C(O)C1C2CCC(O2)C1C(=O)O (stereo not given) ?
[out] inactive

###

- study-target: Microtubule-associated protein tau (Homo sapiens) (UniProt P10636)
- Sequence (P10636 561-689 P618L limits assumed): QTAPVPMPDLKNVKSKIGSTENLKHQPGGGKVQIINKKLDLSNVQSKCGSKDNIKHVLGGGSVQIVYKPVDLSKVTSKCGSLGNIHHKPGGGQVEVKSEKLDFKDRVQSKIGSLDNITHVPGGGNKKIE
- protocol-notes: qHTS for Inhibitors of Tau Fibril Formation, Thioflavin T Binding; further: nearly all actives have a fitted effect of over 55% in size
- condition-description: recombinant tau K18 P301L, heparin-induced fibrillization, ThT fluorescence; series mostly up to 57.4 µM
In all, about 270,000 compounds went through this assay and about 5,800 (2.1%) were called active. Inconclusive results (about 16%) are left out. Calls follow the shape of the dose curve; as a rule, active = well fitted inhibition curve with a large enough effect; inconclusive = small, poorly fitted or top-dose-only effect; inactive = flat fitted curve, though single readings scatter. The full list was thinned out, with actives kept by preference.
Your response should consist of one outcome taken from active, inactive

As a guide, the following entries are already answered.
CC(=O)c1c(O)c(C)c(O)c(Cc2c(O)c3c(c(C(=O)/C=C\c4ccccc4)c2O)OC(C)(C)C=C3)c1O: active
COC(=O)c1ccc2[se]c(CC3CCCCC3)c(I)c2c1: inactive
COC(=O)N(c1ccc(OC)cc1)P1(=S)OCCC(C)O1 (stereo not given): active

[in] Hi team, can someone confirm the assay call for "CCCCC(=O)N/N=C/c1c(O)n(CC)c(=S)n(CC)c1=O" ?
[out] inactive

[in] Hi team, can someone confirm the assay call for C=CCN1CCC23c4c5ccc(O)c4O[C@H]2C(=O)CC[C@@]3(O)C1C5 (stereo not given in full) ?
[out] inactive

[in] Hi team, can someone confirm the assay call for "CC1(C)Cc2c(C#N)c(N3CCNCC3)nc(-c3ccco3)c2CS1" ?
[out] inactive

###

- study-target: Microtubule-associated protein tau (Homo sapiens)
- protocol-notes: qHTS for Inhibitors of Tau Fibril Formation, Thioflavin T Binding; further: nearly all actives have a fitted effect of over 55% in size; further: potency means the concentration at half of the fitted maximal effect
- condition-description: recombinant tau K18 P301L (four-repeat tau fragment), heparin-induced fibrillization, ThT fluorescence; series mostly up to 57.4 µM
The campaign covered roughly 270,000 compounds. About 5,800 (2.1%) were called active. Roughly 16% stayed inconclusive and do not appear here. Many of the other results were omitted from the sample, so actives are more common in it than they were.
measurement-kind: Potency

Worked set:
c1ccc(C2NCc3ccccc3-n3cccc32)cc1 (centres undefined): inactive
Cc1cccc(N2C(=O)NC(=O)/C(=C\c3cnn(-c4ccccc4)c3)C2=O)c1: inactive
CC1=CC(=O)C2=C(C)C[C@H](O)[C@H]3[C@H](C)C(=O)O[C@@H]3C12 (some centres undefined): inactive
C[C@@]12CCC3C(CC[C@@H]4CC(O)CC[C@@]34C)C1CCC2O (some centres undefined): inactive
Cc1ccc(Cn2nnnc2CN2CCC(n3nnc4ccccc43)CC2)cc1: inactive
COc1cccc(N2C(=O)NC(=O)/C(=C\c3ccc([N+](=O)[O-])s3)C2=O)c1: 14.1 µM (active)
O=C1NC(=O)N(c2ccccc2)C(=O)/C1=C/c1ccc([N+](=O)[O-])s1: 14.1 µM (active)
CC(=O)Oc1ccccc1C(=O)Nc1ncc([N+](=O)[O-])s1: 11.2 µM (active)

[in] Lookup: Potency / Microtubule-associated protein tau (Homo sapiens) / "Cc1nnc(NC(=O)c2cccn(Cc3cccc(F)c3)c2=O)s1"
[out] inactive
